Answer each item with its documented normalized growth.
# experiment description: chemical genetic growth profiling, strain panel (AID 1159580);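 note: tested at 20 µM; growth read once vehicle control cultures reached saturation at 30 °C; 1 = growth at the plate median or of vehicle wells; lower values mean less growth of the strain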
# condition details: S. cerevisiae deletion strains, growth OD, locus YAL030W, strain snc1, active compounds read low
Among all 5,500 compounds or so, about 2,000 (36%) were called active. Roughly 18% stayed inconclusive and do not appear here. The list shows a part of the results.
Answers are plain numbers.

Can you give me normalized growth for all of these, one by one?
1. CCCCN(CCCC)CCCOC(=O)c1ccc(N)cc1
2. CC[N+](CC)(CC)CCOc1cccc(OCC[N+](CC)(CC)CC)c1OCC[N+](CC)(CC)CC
3. COc1cc2c(cc1OC)C1Cc3ccc(OC)c(OC)c3CN1CC2 (stereo unspecified)
4. CC(=O)OCC(OC(C)=O)C(OC(C)=O)C(OC(C)=O)C(OC(C)=O)C(COC(C)=O)OC(C)=O (stereo unspecified)
5. O=C(C1CCCCC1)N1CC(=O)N2CCc3ccccc3C2C1 (stereo unspecified)
6. O=C(Cn1ccnc1[N+](=O)[O-])NCCO

# output
1. 0.996
2. 1.02
3. 0.983
4. 0.994
5. 1.01
6. 1.01

Can you give me normalized growth for all of these, one by one?
1. CC(C)(Oc1ccc(C2CC2(Cl)Cl)cc1)C(=O)O (stereo unspecified)
2. C[C@@H]1C(=O)OC2[C@H](O)C34[C@@H]5OC(=O)[C@@]3(O[C@@H]3OC(=O)[C@H](O)[C@@]34[C@H](C(C)(C)C)[C@H]5O)[C@]21O (stereo partly specified)
3. CCCCC(=O)Oc1ccccc1C(=O)O
4. Cc1cccc(C)c1NC1=NCCCS1
5. C#CCCCCCCCCCCCC(O)CC(O)CO (stereo unspecified)
6. C[C@H]1COC2=C1C(=O)C(=O)c1c2ccc2c1CCCC2(C)C

# output
[1, 0.973, 0.989, 1, 0.99, 0.858]

* * *

# experiment description: chemical genetic growth profiling, strain panel (AID 1159580)
# condition details: S. cerevisiae deletion strains, growth OD, locus YDR335W, strain msn5, active compounds read low
Among all 5,500 compounds or so, about 2,000 (36%) were called active. Inconclusive results (about 18%) are left out. The list shows a part of the results.
quantity kind: normalized growth
One number for each entry.

{"compound": "CC(C)[C@@H]1CC[C@@H](C)C[C@H]1O", "normalized growth": 0.984}
{"compound": "C=CC(N)CCC(=O)O (stereo unspecified)", "normalized growth": 0.981}
{"compound": "C[C@H]1CC[C@@H](C(C)(C)O)CC2=C1CC[C@@H]2C", "normalized growth": 0.992}
{"compound": "CC(C)NNC(=O)c1ccncc1", "normalized growth": 1.01}
{"compound": "O=C1[C@H](CCC(O)c2ccc(F)cc2)[C@@H](c2ccc(O)cc2)N1c1ccc(F)cc1 (stereo partly specified)", "normalized growth": 0.959}

Can you give me normalized growth for all of these, one by one?
1. Cc1coc2c1C(=O)C(=O)c1c-2ccc2c1CCCC2(C)C
2. Clc1cccc(Cl)c1NC1=NCCN1
3. CC(C)NCC(O)COc1cccc2ccccc12 (stereo unspecified)
4. COc1ccc2c(c1)O[C@H]1c3ccc(OC)cc3OC[C@@H]21
5. CC[C@H](C)C(=O)O[C@H]1C[C@@H](C)C=C2C=C[C@H](C)[C@H](CC[C@@H]3C[C@@H](O)CC(=O)O3)[C@H]21

# output
[0.929, 0.973, 1.01, 1.03, 1]

* * *

# experiment description: chemical genetic growth profiling, strain panel (AID 1159580);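 note: tested at 20 µM; growth read once vehicle control cultures reached saturation at 30 °C; 1 = growth at the plate median or of vehicle wells; lower values mean less growth of the strain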
# condition details: S. cerevisiae deletion strains, growth OD, locus YER155C, strain BEM2 (second series), active compounds read low
The campaign covered roughly 5,500 compounds. About 2,000 (36%) were called active. Roughly 18% stayed inconclusive and do not appear here. Some of the results follow.
Mark fulfilled only for normalized growth values smaller than 1; exact matches and larger values are not fulfilled.

{"molecule": "C[C@H]1COC2=C1C(=O)C(=O)c1c2ccc2c1CCCC2(C)C", "class name": "fulfilled"}
{"molecule": "C=CCCCCCCCCCCCC(O)CC(O)COC(C)=O (centres undefined) (tested in a mixture with another compound)", "class name": "fulfilled"}
{"molecule": "C#CCCCCCCCCCCCC(=O)CC(O)COC(C)=O (centres undefined)", "class name": "fulfilled"}
{"molecule": "O=C(O)CN1C(=O)c2cccc3cccc(c23)C1=O", "class name": "fulfilled"}
{"molecule": "C=C1CCC2C(CC2(C)C)C(=O)CCC1O (centres undefined)", "class name": "not fulfilled"}

# input is_below(normalized growth, 1) for "CN1C(C(=O)Nc2ccccn2)=C(O)c2ccccc2S1(=O)=O" ?
# output fulfilled

# input is_below(normalized growth, 1) for NC(CO)C(=O)NNCc1ccc(O)c(O)c1O (centres undefined) ?
# output not fulfilled

# input is_below(normalized growth, 1) for "O=c1cc(-c2ccccc2O)oc2cc(O)ccc12" ?
# output fulfilled

# input is_below(normalized growth, 1) for "Oc1ccc(Cl)cc1Cc1cc(Cl)ccc1O" ?
# output fulfilled

# input is_below(normalized growth, 1) for NS(=O)(=O)c1cc2c(cc1Cl)NC(C(Cl)Cl)NS2(=O)=O (centres undefined) ?
# output not fulfilled

# input is_below(normalized growth, 1) for O=C1CC2OCC=C3CN4CC[C@]56c7ccccc7N1C5[C@H]2[C@H]3CC46 (some centres undefined) ?
# output not fulfilled

# input is_below(normalized growth, 1) for "N[C@@H](CC(=O)N1CCn2c(nnc2C(F)(F)F)C1)Cc1cc(F)c(F)cc1F" ?
# output fulfilled

# input is_below(normalized growth, 1) for "Cc1coc2c1C(=O)C(=O)c1c-2ccc2c1CCCC2(C)C" ?
# output fulfilled

# input is_below(normalized growth, 1) for Nc1ccn(C2O[C@H](CO)[C@@H](O)[C@@H]2O)c(=O)n1 (some centres undefined) ?
# output fulfilled

# input is_below(normalized growth, 1) for "OCc1ccccc1O" ?
# output not fulfilled

# input is_below(normalized growth, 1) for "Nc1ccc(N=Nc2ccccc2)c(N)n1" ?
# output fulfilled

# input is_below(normalized growth, 1) for "C=C1C(=O)O[C@@H]2C[C@@]3(C)CCC[C@H](C)C3=C[C@H]12" ?
# output fulfilled

# input is_below(normalized growth, 1) for CC(C)COCC(CN(Cc1ccccc1)c1ccccc1)N1CCCC1 (centres undefined) ?
# output fulfilled

# input is_below(normalized growth, 1) for "Cc1c(S(=O)(=O)O)oc2c1C(=O)C(=O)c1c-2ccc2c1CCCC2(C)C" ?
# output fulfilled

# input is_below(normalized growth, 1) for "NC(=O)c1cccc(N)c1" ?
# output fulfilled

# input is_below(normalized growth, 1) for C=C1C(=O)O[C@@H]2C3O[C@]3(C)CC/C=C(\C)CC[C@@H]12 (some centres undefined) ?
# output fulfilled

# input is_below(normalized growth, 1) for "CC(C)(C)CC(C)(C)c1ccc(O)c(Cc2ccc(Cl)cc2Cl)c1" ?
# output not fulfilled

* * *

Answer each item with its documented normalized growth.
# experiment description: chemical genetic growth profiling, strain panel (AID 1159580);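 note: tested at 20 µM; growth read once vehicle control cultures reached saturation at 30 °C; 1 = growth at the plate median or of vehicle wells; lower values mean less growth of the strain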
# condition details: S. cerevisiae deletion strains, growth OD, locus YKR091W, strain srl3, active compounds read low
The campaign covered roughly 5,500 compounds. About 2,000 (36%) were called active. Roughly 18% stayed inconclusive and do not appear here. This is one part of the list.

Record excerpt, results attached:
{"molecule": "Cc1c(S(=O)(=O)O)oc2c1C(=O)C(=O)c1c-2ccc2c1CCCC2(C)C", "quantity kind": "normalized growth", "experimental value": "0.95 (inactive)"}
{"molecule": "CC[N+](CC)(CC)CCOc1cccc(OCC[N+](CC)(CC)CC)c1OCC[N+](CC)(CC)CC", "quantity kind": "normalized growth", "experimental value": "1.02 (inactive)"}
{"molecule": "Cc1coc2c1C(=O)C(=O)c1c-2ccc2c1CCCC2(C)C", "quantity kind": "normalized growth", "experimental value": "0.946 (inactive)"}
{"molecule": "Cc1cc(-c2ccccc2)nnc1NCCN1CCOCC1", "quantity kind": "normalized growth", "experimental value": "0.995 (inactive)"}
{"molecule": "C[C@H]1COC2=C1C(=O)C(=O)c1c2ccc2c1CCCC2(C)C", "quantity kind": "normalized growth", "experimental value": "0.893 (active)"}

Can you give me normalized growth for all of these, one by one?
1. CC(C)NC[C@H](O)COc1cccc2ccccc12
2. C[C@@H]1C(=O)OC2[C@H](O)C34[C@@H]5OC(=O)[C@@]3(O[C@@H]3OC(=O)[C@H](O)[C@@]34[C@H](C(C)(C)C)[C@H]5O)[C@]21O (some centres not stated)

# output
1: 0.99 (inactive); 2: 0.955 (inactive)

* * *

Answer each item with its documented normalized growth.
# experiment description: chemical genetic growth profiling, strain panel (AID 1159580);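 note: tested at 20 µM; growth read once vehicle control cultures reached saturation at 30 °C; 1 = growth at the plate median or of vehicle wells; lower values mean less growth of the strain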
# condition details: S. cerevisiae deletion strains, growth OD, locus YNL209W, strain ssb2, active compounds read low
Structures can show the parent of a compound that is named as a salt. Screen size: about 5,500 compounds; about 2,000 (36%) were called active. About 18% were inconclusive and are not listed. This is one part of the list. Where a SMILES comes first, the peptide text is derived from it. The star is where a group is joined. Tfa = O=C(C(F)(F)F)*
Numbers only.

{"molecule": "CCCOc1ccc(C(=O)OCCN(CC)CC)cc1N", "normalized growth": 1}

Can you give me normalized growth for all of these, one by one?
1. Cc1cccc(Nc2ccccc2C(=O)O)c1C
2. CCN(CC)CCOC(=O)c1ccc(N)cc1
3. CC(C)C(NC(=O)C(Cc1ccc(O)cc1)NC(=O)C(NC(=O)C(F)(F)F)C(C)C)C(=O)O (stereo not drawn) (Tfa-Val-Tyr-Val-OH; configuration not given here)

# output
0.939
0.975
1

Can you give me normalized growth for all of these, one by one?
1. CC(C)C(C)/C=C/C(C)[C@H]1CCC2C3=CCC4CC(=O)CC[C@]4(C)C3CC[C@@]21C (stereo not given in full)
2. CCCCN1CCCCC1C(=O)Nc1c(C)cccc1C (stereo not given)
3. CCCCC(=O)Oc1ccccc1C(=O)O
4. O=C1OC2(c3ccc(O)cc3Oc3cc(O)ccc32)c2ccccc21
5. CCCCCCOc1ccccc1C(N)=O
6. CCCCCCCCCCCCCCCC(=O)OC1C(SC)OC(C(NC(=O)C2CC(CCC)CN2C)C(C)Cl)C(O)C1O (stereo not given)
7. CC(C)NCC(O)COc1cccc2ccccc12 (stereo not given)
8. CCCCOC(=O)c1ccc(N)cc1

# output
1.01
0.976
0.974
1.02
0.902
0.985
1
0.927

Can you give me normalized growth for all of these, one by one?
1. CCCCOC(=O)c1ccccc1C(=O)OCCCC
2. CCOC(=O)[C@H](CCc1ccccc1)N[C@@H](C)C(=O)N1[C@H](C(=O)O)C[C@@H]2CCC[C@@H]21
3. CC1(C)O[C@H]2[C@H](O)C[C@](O)(C(N)=O)C[C@H]2O1
4. CCCCN(CCCC)CCCOC(=O)c1ccc(N)cc1
5. O=C1OC(c2ccc(O)cc2)(c2ccc(O)cc2)c2ccccc21

# output
1. 0.99
2. 0.981
3. 1.02
4. 0.985
5. 0.99

Can you give me normalized growth for all of these, one by one?
1. Cc1ccc(Cl)c(Nc2ccccc2C(=O)O)c1Cl
2. CC[N+](CC)(CC)CCOc1cccc(OCC[N+](CC)(CC)CC)c1OCC[N+](CC)(CC)CC

# output
1. 0.917
2. 1.02

# input Indicate its recorded normalized growth; the molecule in question is O=S1OCC2C(CO1)C1(Cl)C(Cl)=C(Cl)C2(Cl)C1(Cl)Cl (stereo not given)
# output 0.991
